Assay: Antioxidant activity against AAPH-induced lipid peroxidation assessed as inhibition of conjugated diene hydroperoxide production at 0.1 mM by UV spectrophotometry
Assay type: functional
Below: a set of entries, each annotated with reported inhibition.

{"columns": ["molecule", "inhibition"],
 "data": [
  ["COc1cc(C)c(/C=C/C(C)=C/C=C/C(C)=C/C(=O)NCc2ccccc2)c(C)c1C", "45%"],
  ["Cc1oc2c(C)c3oc(=O)cc(C)c3cc2c1/C=C/C(=O)NCCCNCCCCNCCCNC(=O)/C=C/c1c(C)oc2c(C)c3oc(=O)cc(C)c3cc12", "33%"],
  ["O=C(O)/C=C/c1ccc(O)c(O)c1", "17.5%"],
  ["O=C(O)/C=C/C(=O)n1cc(C(=O)Nc2ccccc2)c2ccccc21", "85%"],
  ["COc1cc(C)c(/C=C/C(C)=C/C=C/C(C)=C/C(=O)O)c(C)c1C", "85%"]
]}

Incoming: Can you look up the measured inhibition of `CCCCNC(=O)/C=C/c1c(C)oc2c(C)c3oc(=O)cc(C)c3cc12` for me?
Outgoing: 66%

Incoming: Give its inhibition value. Item: `O=C(O)CCc1ccc(O)c(O)c1`
Outgoing: 47%

Incoming: Can you look up the measured inhibition of `COc1cc(C)c(/C=C/C(C)=C/C=C/C(C)=C/C(=O)NCCc2ccc(O)c(O)c2)c(C)c1C` for me?
Outgoing: 10%

Incoming: May I ask what inhibition has been recorded for Cc1c(C)c2c(c(C)c1O)CCC(C)(C(=O)O)O2 (stereo not given) ?
Outgoing: 63%
